All figures here come from paper PMC9516332.

Reported inhibition at 1 µM values follow for various molecules
- experimental.target: panel of 255 wild-type kinases (Homo sapiens)
- method: Kinase panel profiling at 1 µmol/L (MSA or IMAP), percentage inhibition
- Assay type: biochemical
- assay.setup: kinase HIPK3; 1 µmol/L single concentration; read-out: %-inhibition at 1 µmol/L, HIPK3

{"molecule": "C=CC(=O)N1CCC([C@@H]2CCNc3c(C(N)=O)c(-c4ccc(Oc5ccccc5)cc4)nn32)CC1 [zanubrutinib]", "inhibition at 1 µM, %": -2.42}
{"molecule": "C[C@H](Nc1ncnc2nc[nH]c12)c1cc2cccc(Cl)c2c(=O)n1-c1ccccc1 [duvelisib]", "inhibition at 1 µM, %": 3.5}
{"molecule": "COc1ccc(CN2C3CC2CN(c2ccc(-c4cc(OCC(C)(C)O)cn5ncc(C#N)c45)cn2)C3)cn1 [selpercatinib]", "inhibition at 1 µM, %": -3}
{"molecule": "Cn1cc(-c2cc3c(N4CCN(c5ncc([C@@](C)(N)c6ccc(F)cc6)cn5)CC4)ncnn3c2)cn1 [avapritinib]", "inhibition at 1 µM, %": -0.071}
{"molecule": "Cc1cc(Nc2ncnc3ccc(NC4=NC(C)(C)CO4)cc23)ccc1Oc1ccn2ncnc2c1 [tucatinib]", "inhibition at 1 µM, %": 2.27}
{"molecule": "CN1CCN(c2ccc(C(=O)Nc3n[nH]c4ccc(Cc5cc(F)cc(F)c5)cc34)c(NC3CCOCC3)c2)CC1 [entrectinib]", "inhibition at 1 µM, %": 5}
{"molecule": "Cc1nc(NC(=O)N2CCC[C@H]2C(N)=O)sc1-c1ccnc(C(C)(C)C(F)(F)F)c1 [alpelisib]", "inhibition at 1 µM, %": 7}

###

- System: 134 cancer cell lines
- method: Cell viability assay (ATPlite, 72 hours), IC50 on cancer cell line panel
- assay.setup: Homo sapiens, MeWo, read-out: IC50 in cell proliferation assay, MeWo cell line
pIC50: −log10 of the molar value.

{"smiles.string": "CCCS(=O)(=O)Nc1ccc(F)c(C(=O)c2c[nH]c3ncc(-c4ccc(Cl)cc4)cc23)c1F", "sign.qualifier": "<", "pIC50": 4.50}
{"smiles.string": "C[C@H](Nc1ncnc2nc[nH]c12)c1cc2cccc(Cl)c2c(=O)n1-c1ccccc1", "sign.qualifier": "=", "pIC50": 4.55}
{"smiles.string": "CO[C@]1(C(=O)N[C@@H](C)c2ccc(-n3cc(F)cn3)nc2)CC[C@H](c2nc(C)cc(Nc3cc(C)[nH]n3)n2)CC1", "sign.qualifier": "=", "pIC50": 5.16}
{"smiles.string": "Cn1cnc2c(F)c(Nc3ccc(Br)cc3F)c(C(=O)NOCCO)cc21", "sign.qualifier": "=", "pIC50": 6.93}
{"smiles.string": "CCN1CCN(c2ccc(Nc3cc(N(C)C(=O)Nc4c(Cl)c(OC)cc(OC)c4Cl)ncn3)cc2)CC1", "sign.qualifier": "<", "pIC50": 5.50}
{"smiles.string": "COc1cc2ncnc(Nc3ccc(F)c(Cl)c3)c2cc1NC(=O)/C=C/CN1CCCCC1", "sign.qualifier": "=", "pIC50": 5.41}
{"smiles.string": "CC(C)(C)c1nc(-c2cccc(NS(=O)(=O)c3c(F)cccc3F)c2F)c(-c2ccnc(N)n2)s1", "sign.qualifier": "=", "pIC50": 5.99}
{"smiles.string": "O=C(Nc1cnn2ccc(N3CCC[C@@H]3c3cc(F)ccc3F)nc12)N1CC[C@H](O)C1", "sign.qualifier": "<", "pIC50": 4.50}

###

inhibition at 1 µM values for the compounds below.
- experimental.target: panel of 255 wild-type kinases (Homo sapiens)
- method: Kinase panel profiling at 1 µmol/L (MSA or IMAP), percentage inhibition
- Format: biochemical
- assay.setup: kinase RSK1; 1 µmol/L single concentration; read-out: %-inhibition at 1 µmol/L, RSK1

{"compound": "CCN1C(=O)N(c2c(F)c(OC)cc(OC)c2F)Cc2cnc3[nH]c(CN4CCOCC4)cc3c21 [pemigatinib]", "experimental.target": "panel of 255 wild-type kinases (Homo sapiens)", "unit.label": "%", "inhibition at 1 µM": -1.79}
{"compound": "COC(=O)N[C@@H](C)CNc1nccc(-c2cn(C(C)C)nc2-c2cc(Cl)cc(NS(C)(=O)=O)c2F)n1 [encorafenib]", "experimental.target": "panel of 255 wild-type kinases (Homo sapiens)", "unit.label": "%", "inhibition at 1 µM": -2}
{"compound": "O=C(Nc1cnn2ccc(N3CCC[C@@H]3c3cc(F)ccc3F)nc12)N1CC[C@H](O)C1 [larotrectinib]", "experimental.target": "panel of 255 wild-type kinases (Homo sapiens)", "unit.label": "%", "inhibition at 1 µM": -3.46}
{"compound": "C[C@H]1Oc2cc(cnc2N)-c2c(nn(C)c2C#N)CN(C)C(=O)c2ccc(F)cc21 [lorlatinib]", "experimental.target": "panel of 255 wild-type kinases (Homo sapiens)", "unit.label": "%", "inhibition at 1 µM": 2.31}

###

- Test system: 134 cancer cell lines
- method: Cell viability assay (ATPlite, 72 hours), IC50 on cancer cell line panel
- assay.setup: Homo sapiens, UMUC3, read-out: IC50 in cell proliferation assay, cell line UM-UC-3

{"molecule": "CCN1CCN(c2ccc(Nc3cc(N(C)C(=O)Nc4c(Cl)c(OC)cc(OC)c4Cl)ncn3)cc2)CC1 [infigratinib]", "IC50": "625 nM"}
{"molecule": "CC(=O)Nc1cccc(-n2c(=O)n(C3CC3)c(=O)c3c(Nc4ccc(I)cc4F)n(C)c(=O)c(C)c32)c1 [trametinib]", "IC50": "21 nM"}
{"molecule": "Cn1cnc2c(F)c(Nc3ccc(Br)cc3Cl)c(C(=O)NOCCO)cc21 [selumetinib]", "IC50": "801 nM"}
{"molecule": "CCCS(=O)(=O)Nc1ccc(F)c(C(=O)c2c[nH]c3ncc(-c4ccc(Cl)cc4)cc23)c1F [vemurafenib]", "IC50": "> 31600 nM"}
{"molecule": "COC(=O)N[C@@H](C)CNc1nccc(-c2cn(C(C)C)nc2-c2cc(Cl)cc(NS(C)(=O)=O)c2F)n1 [encorafenib]", "IC50": "993 nM"}
{"molecule": "FC(F)(F)c1ccc(CNc2ccc(Cc3c[nH]c4ncc(Cl)cc34)cn2)cn1 [pexidartinib]", "IC50": "> 31600 nM"}

###

- experimental.target: panel of 255 wild-type kinases (Homo sapiens, UniProt P29320)
- Sequence (P29320 21-983): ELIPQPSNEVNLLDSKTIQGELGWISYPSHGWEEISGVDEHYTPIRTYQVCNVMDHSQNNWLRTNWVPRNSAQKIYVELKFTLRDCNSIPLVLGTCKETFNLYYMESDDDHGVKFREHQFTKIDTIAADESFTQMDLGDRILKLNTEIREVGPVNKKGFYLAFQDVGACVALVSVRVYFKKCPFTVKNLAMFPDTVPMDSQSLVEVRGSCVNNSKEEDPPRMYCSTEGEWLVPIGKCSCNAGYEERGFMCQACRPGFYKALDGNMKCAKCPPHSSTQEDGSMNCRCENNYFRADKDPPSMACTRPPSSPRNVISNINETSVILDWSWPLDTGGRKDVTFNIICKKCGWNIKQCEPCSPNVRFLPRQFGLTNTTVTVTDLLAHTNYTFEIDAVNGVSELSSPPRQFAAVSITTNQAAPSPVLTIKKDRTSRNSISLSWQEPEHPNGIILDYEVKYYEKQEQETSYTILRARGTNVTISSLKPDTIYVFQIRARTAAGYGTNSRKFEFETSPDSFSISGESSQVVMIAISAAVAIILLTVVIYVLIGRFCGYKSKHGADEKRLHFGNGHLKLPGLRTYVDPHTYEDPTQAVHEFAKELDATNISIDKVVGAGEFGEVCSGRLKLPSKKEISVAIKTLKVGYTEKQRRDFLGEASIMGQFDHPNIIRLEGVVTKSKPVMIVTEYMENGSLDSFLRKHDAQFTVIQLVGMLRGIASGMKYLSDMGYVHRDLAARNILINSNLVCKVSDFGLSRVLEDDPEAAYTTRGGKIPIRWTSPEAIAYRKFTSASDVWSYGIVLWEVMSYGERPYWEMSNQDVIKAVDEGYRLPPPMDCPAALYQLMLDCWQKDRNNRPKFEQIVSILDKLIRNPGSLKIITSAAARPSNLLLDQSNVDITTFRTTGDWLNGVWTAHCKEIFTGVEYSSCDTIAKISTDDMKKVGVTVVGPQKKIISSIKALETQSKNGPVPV
- method: Kinase panel profiling at 1 µmol/L (MSA or IMAP), percentage inhibition
- Assay type: biochemical
- assay.setup: kinase EPHA3; 1 µmol/L single concentration; read-out: %-inhibition at 1 µmol/L, EPHA3

{"molecule": "FC(F)(F)c1ccc(CNc2ccc(Cc3c[nH]c4ncc(Cl)cc34)cn2)cn1 [pexidartinib]", "unit.label": "%", "inhibition at 1 µM": 2.11}
{"molecule": "O=C(Nc1cnn2ccc(N3CCC[C@@H]3c3cc(F)ccc3F)nc12)N1CC[C@H](O)C1 [larotrectinib]", "unit.label": "%", "inhibition at 1 µM": 0.702}
{"molecule": "COc1ccc(CN2C3CC2CN(c2ccc(-c4cc(OCC(C)(C)O)cn5ncc(C#N)c45)cn2)C3)cn1 [selpercatinib]", "unit.label": "%", "inhibition at 1 µM": 49}
{"molecule": "C=CC(=O)N1CCC([C@@H]2CCNc3c(C(N)=O)c(-c4ccc(Oc5ccccc5)cc4)nn32)CC1 [zanubrutinib]", "unit.label": "%", "inhibition at 1 µM": -0.0989}
{"molecule": "CO[C@]1(C(=O)N[C@@H](C)c2ccc(-n3cc(F)cn3)nc2)CC[C@H](c2nc(C)cc(Nc3cc(C)[nH]n3)n2)CC1 [pralsetinib]", "unit.label": "%", "inhibition at 1 µM": 32}
{"molecule": "CCn1c(=O)c(-c2cc(NC(=O)Nc3ccccc3)c(F)cc2Br)cc2cnc(NC)cc21 [ripretinib]", "unit.label": "%", "inhibition at 1 µM": 88}
{"molecule": "Cc1cc(Nc2ncnc3ccc(NC4=NC(C)(C)CO4)cc23)ccc1Oc1ccn2ncnc2c1 [tucatinib]", "unit.label": "%", "inhibition at 1 µM": -10}
{"molecule": "COc1cc2ncnc(Nc3ccc(F)c(Cl)c3)c2cc1NC(=O)/C=C/CN1CCCCC1 [dacomitinib]", "unit.label": "%", "inhibition at 1 µM": 11}
{"molecule": "CN1CCN(c2ccc(C(=O)Nc3n[nH]c4ccc(Cc5cc(F)cc(F)c5)cc34)c(NC3CCOCC3)c2)CC1 [entrectinib]", "unit.label": "%", "inhibition at 1 µM": 30}
{"molecule": "Cn1cnc2c(F)c(Nc3ccc(Br)cc3Cl)c(C(=O)NOCCO)cc21 [selumetinib]", "unit.label": "%", "inhibition at 1 µM": -8}
{"molecule": "CCN1CCN(c2ccc(Nc3cc(N(C)C(=O)Nc4c(Cl)c(OC)cc(OC)c4Cl)ncn3)cc2)CC1 [infigratinib]", "unit.label": "%", "inhibition at 1 µM": -0.311}
{"molecule": "CCc1nc(C(N)=O)c(Nc2ccc(N3CCC(N4CCN(C)CC4)CC3)c(OC)c2)nc1NC1CCOCC1 [gilteritinib]", "unit.label": "%", "inhibition at 1 µM": 30}
{"molecule": "Cc1nc(NC(=O)N2CCC[C@H]2C(N)=O)sc1-c1ccnc(C(C)(C)C(F)(F)F)c1 [alpelisib]", "unit.label": "%", "inhibition at 1 µM": -0.173}
{"molecule": "Cn1cc(-c2cc3c(N4CCN(c5ncc([C@@](C)(N)c6ccc(F)cc6)cn5)CC4)ncnn3c2)cn1 [avapritinib]", "unit.label": "%", "inhibition at 1 µM": 22}
{"molecule": "C[C@H]1Oc2cc(cnc2N)-c2c(nn(C)c2C#N)CN(C)C(=O)c2ccc(F)cc21 [lorlatinib]", "unit.label": "%", "inhibition at 1 µM": 4.35}
{"molecule": "COC(=O)N[C@@H](C)CNc1nccc(-c2cn(C(C)C)nc2-c2cc(Cl)cc(NS(C)(=O)=O)c2F)n1 [encorafenib]", "unit.label": "%", "inhibition at 1 µM": 4}
{"molecule": "CCN1C(=O)N(c2c(F)c(OC)cc(OC)c2F)Cc2cnc3[nH]c(CN4CCOCC4)cc3c21 [pemigatinib]", "unit.label": "%", "inhibition at 1 µM": 0.534}
{"molecule": "Cn1cnc2c(F)c(Nc3ccc(Br)cc3F)c(C(=O)NOCCO)cc21 [binimetinib]", "unit.label": "%", "inhibition at 1 µM": 0.248}
{"molecule": "C[C@H](Nc1ncnc2nc[nH]c12)c1cc2cccc(Cl)c2c(=O)n1-c1ccccc1 [duvelisib]", "unit.label": "%", "inhibition at 1 µM": 0.475}
